All values here come from the nanobody polyreactivity screen of Harvey et al. (2022).

# Protocol: yeast display, Sf9 membrane polyspecificity reagent, FACS + sequencing; frameworks hold sequencing errors
Reported Endpoint: polyreactivity (PSR sort gate)

Guide cases for polyreactivity (PSR sort gate), answers given:
QVQLVESGGGLVQAGGSLRLSCAASGRTFCVYVMGWYRQAPGKERQLVAAIDDSGGSTYYADSVKGRFTISRDNAKNTVYLQMNSLKPEDTAVYYCAKTKTQYLTSEIRFDYWGQGTQVTVSS; low polyreactivity
QVQVVESRGGLVQAGGSLRLSCAASGLIFLGYAMGWYRQAPGKERELVASIRTGGSTSYADSVKGRFTISRDNENNRVYLQMNSLKPEDTAVYYCAADRGRPNLPGDYWGQGSQVTVSS; low polyreactivity
QVQLVESGGGLVQAGRSLRLNCAASGSIIKYNAMGWYRPAPGKERELVASISSSGGTTYYADSVKGRFTISRDNAKNTVYLQMNRLTPEDTAVYYCTKYVRAGNGYGEEDYWGQGTQVTVSS; high polyreactivity
QVQLVESGGGLVQAGGSLRLSCAASGRTLRLYAMGWYRQAPGKERELVAAISSRGRTYYADSVKGRFTISRDNAKNTVYLQMNSLKPEDTAVYYCAVVVYQGFRSKYYYWGQGTQVTVSS; high polyreactivity

API: the following record is the query input.
Query block: Fill blank: measured polyreactivity (PSR sort gate) of the sequence `QVQLVESGGGLVQAGGSLRLSCAASGRIFSFYTMGWYRQAPGKERELVAAITWRGGSTYYADSVKGRFTISRDNAKNTVYLQMNSLKPEDTAVYYCAAEVYGAVYDYWGQGTQVTVSS` is ____.
Result block: low polyreactivity

----------
# Protocol: yeast display, Sf9 membrane polyspecificity reagent, FACS + sequencing; frameworks hold sequencing errors
Reported Endpoint: polyreactivity (PSR sort gate)

Guide cases for polyreactivity (PSR sort gate), answers given:
QVKLVESGGGLVQAGGSLRLSCAASGRTFRYNAMGWYRQEPGEERELVASITSGGSTNYADSVKGRFTISRDNAKNTVYLQMNRLKPEDTAVYYCAADERRPYWQHCIGSGRPFDYWGQGTQVTVSS; low polyreactivity
KVQLVESGGALVQAGGSLRLSCAPSGSIFWNNAMGWYRQAPGKERELVAGISSAGSTNYADSVKGRFTISRDNAKNTVYLQLKSQKPEDTAVYYCAASYFSEYVWLRSYVRYYYWVQGTQVTVSS; low polyreactivity
QVQLVESGGGLVQAGGSLRLSCAASGLTFWVYTMGWYRQAPGKERELVARITSRGASTYYADSVKGRFTISRDNAKNTVYLQMNSLKPEDTAVYYCATDRYRIYPDYDYWGQGTQVTVSS; high polyreactivity
QVQLVESGGGLLQAGGSLRLTCAASGSIFRYYSMGWYRQAPGKERELVASINSCGSTYYADSVKGRFTISRDNAKNTVYLQMKSLKPEDSAVYYCAAETSFYYRGYWKSYDYWGQGTQVTVSA; high polyreactivity

API: the following record is the query input.
Query block: Fill blank: measured polyreactivity (PSR sort gate) of the sequence `QVQLVESGGGLVQAGGSLRLSCAASGRIFTKNTKGWYRQAPGKERELVAAIRSRAGSTYYADSVKGRFTISRDNAKNTVYLQMNSLKPEDTAVYYCAVPWFRSVDFDYWGQGTQVTVSS` is ____.
Result block: low polyreactivity

----------
# Protocol: yeast display, Sf9 membrane polyspecificity reagent, FACS + sequencing; frameworks hold sequencing errors
Reported Endpoint: polyreactivity (PSR sort gate)

Guide cases for polyreactivity (PSR sort gate), answers given:
QVQLVESGGGLVQAGGSLRLSCAASGSILYPYAMGWYRQAPGKEREFVAAITYGGGRTYYADSVKGRFTISRDNEKNTVYLHMNSLKPEDTAVYYCAARYTYSYPLFGSWGQGTQVTVSS; high polyreactivity
QVQLVESGGGLVQAGGSLRLSCAASRITLNRNAMGWYRQAPGKERELVARISRRGGTTYYADSVKGRFTISRDNENNTVYLQMNSLKPEDTAVYYFNAGPYGGNPFDYWGQGPQVTVSS; high polyreactivity
QVQLVESGGGLVQAGGSLRLSCAASGRTFGSYAMGWYRQAPGKERELVAAITWSGGITYFADSVKGRFTISRDNAKNTVYLKMNSLKPEDTAVYYCNVYVSAGEEDEYWGQGTQVTVSS; low polyreactivity
QVQLVESGGGLVQAGGSLRLSCAASGSIFKYNAMGWYRQAPGKEREFVAAISSSSGNTYYADSVKGRFTISRDNAKNSVYIQMNSLKPEDTAVYYCAARTFAYRRGWFGYWGQGTQVTVSS; high polyreactivity
QVQLEESGGGLVQAGGSLRLSCAASGRIFYLNAMGWYRQAHGKERDLVAAITRSAASTHYADSVKGRFTISRDNAKNTVYLQLNSLKPEDTAVYYCAARFWYDYRHYDYWGQGTQVSVSS; low polyreactivity

Query block: Fill blank: measured polyreactivity (PSR sort gate) of the sequence `QVQLVDSGGGLVQAGGSLRLSCAASGRTFWYYTMGWYRQAPGKEREFVAAIRGSGTSTYYADSVKARFTISRDNEKNTVYLQMNSLKPEDTAVYYCAAESPVYHLVTYDYWGQGTQVTVSS` is ____.
Result block: high polyreactivity

Query block: And then `QVQLVESWGALVQAGGSLRLSCAASGSTFGSNAMGWYRQAPGKERELVAAITYSGGRTYYADSVKGRFTISRDNAKNTVYLQMNSLTPEDTAVYYCAATFGFFYYQYDYWGQGTQVTVSS` , what is it?
Result block: low polyreactivity

Query block: And then `QDQLVDSGGGLVQAGGSLRLSCAASGRSFRNNPMGWYRQAPGKERELVAAITSSGASTYYADSVKGRFTISRDNAKNTVYLQMNSLKPEDTAVYSCAAATVRQFRSSLDYWGQGTQVTVSS` , what is it?
Result block: high polyreactivity

Query block: And then `QVQLVESGAGLVQAGGSLRLSCAASGRIFYPYAMGRSRQAPGKERELVAAISGRGGRTYYADSVKGRFTISRDNAKNTVYLQMKSLKPEYTAVYYCNRVVSGYPGSDYWGNGTQVTVSS` , what is it?
Result block: high polyreactivity

Query block: And then `QVQLVESGGGLVQAGGSLRLTCAASGRIFYGYTMGWYRKAPGKERELVAAITRRGGRTYYADSVKGRFTISRDNAKNTVYLQMNCLKPEDTAVYYCAATRSGEYDYWGQGTQVTVSS` , what is it?
Result block: high polyreactivity

Query block: And then `QVQLVESGGGLVQAGGSLRLSCAASGYIFDRYAMGWYRQAPGKERELVAAISGRGGSTYYADSVKGRFTISRDNAKNTVSLQMNSLKPEDTAVYYCARDVYVRNGQRARYDSWGQGTQVTVSS` , what is it?
Result block: high polyreactivity

----------
# Protocol: yeast display, Sf9 membrane polyspecificity reagent, FACS + sequencing; frameworks hold sequencing errors
Reported Endpoint: polyreactivity (PSR sort gate)

QVQLVESGGGLVQAGGSLRLSCAASGSTFSFYAMGWYRQAPGKERELVAAISSRGGSTYYADSVKGRFTISRDNAKNTVYLQMNSLKPEDTAVYYCAVRRYPHFYHRGGFNFNGYDYWGQGTQVTVSS; high polyreactivity
QVQLVESGGGLVQAGGSLRLSCAASGGIFWYYTRGWYRQAPGKERELVATISSGGRTYYADSVKGRFTISRDNAKNTVYLQMNSLKPEDTAVYYCAKSYRRRQGYSYWGQGTQVTVSS; high polyreactivity
QVQLVESGGGLVQAGGSLRLSCAASGSIYGSYVMGWYRQAPGKERELVAAINWSGGRTYYADSVKGRFTISRDNAKYTVFLQMNSLKPEDTAVYYCAARATNVYSKMDYWGQGTQVSVSS; high polyreactivity
QVQLVESGGGLVQAGGSLRLSCPASGRTFRYYAMGWYRQAPGKERELVAAITANGGSTFYADSVKGRFTISRDNAKNTVYLQMNSLKPEDTAVYYCAARFYTSSRYNYWGQGTQVTVSS; high polyreactivity
QVQLVESGGGLVQAGGSLRLSCAASGSIFGYNAMGWYRQAPGKERELVAAISLTTGSTYYADSVKGRFTISRDNAKNTVYLQMNSLKPEDTAVYYCAAVDADYYYWGQGTQVTVSS; high polyreactivity

API: the following record is the query input.
Query block: Fill blank: measured polyreactivity (PSR sort gate) of the sequence `QVQLVESGGGLVQAGGSLRLSCAASGSTFLINAMGWYRQAPGKERELVAAISRDGSTNYADSVKGRFTISRDNAKNTVYLQMNSLKPEDTAVYYCAAVPGISVGRQPGYDYDYWGQGTQVTVSS` is ____.
Result block: low polyreactivity

----------
# Protocol: yeast display, Sf9 membrane polyspecificity reagent, FACS + sequencing; frameworks hold sequencing errors
Reported Endpoint: polyreactivity (PSR sort gate)

QVQLVESGGGLVQAGGSLRLSCAASGRTFSPYMGWYRQAPGKERELVAAISKSGGRTYYADSVKGRFTISRDNAKNTVYLQMNSLKPEDTAVYYCANTGNNYYYALYGYWGQGTQVTVSS; low polyreactivity
QVQLVESGGGLVQAGGSLRLICAASGSTFIVYAMGWSRQAPGKEREFVAAISSGDSTKYADSVKGRFTISRDNAKNTVYLQMNSLKPEDTAVYYCAKYGQRSIHSPSLVGYYYWGQGTQVTVSS; low polyreactivity
